biological target: human GlyT1c transporter (Homo sapiens, UniProt P48067); construct: membranes); assay: Radioligand binding assay using recombinant CHO cell membranes expressing human GlyT1; conditions: read-out: radioligand binding Kiapp
Sequence (P48067 whole entry): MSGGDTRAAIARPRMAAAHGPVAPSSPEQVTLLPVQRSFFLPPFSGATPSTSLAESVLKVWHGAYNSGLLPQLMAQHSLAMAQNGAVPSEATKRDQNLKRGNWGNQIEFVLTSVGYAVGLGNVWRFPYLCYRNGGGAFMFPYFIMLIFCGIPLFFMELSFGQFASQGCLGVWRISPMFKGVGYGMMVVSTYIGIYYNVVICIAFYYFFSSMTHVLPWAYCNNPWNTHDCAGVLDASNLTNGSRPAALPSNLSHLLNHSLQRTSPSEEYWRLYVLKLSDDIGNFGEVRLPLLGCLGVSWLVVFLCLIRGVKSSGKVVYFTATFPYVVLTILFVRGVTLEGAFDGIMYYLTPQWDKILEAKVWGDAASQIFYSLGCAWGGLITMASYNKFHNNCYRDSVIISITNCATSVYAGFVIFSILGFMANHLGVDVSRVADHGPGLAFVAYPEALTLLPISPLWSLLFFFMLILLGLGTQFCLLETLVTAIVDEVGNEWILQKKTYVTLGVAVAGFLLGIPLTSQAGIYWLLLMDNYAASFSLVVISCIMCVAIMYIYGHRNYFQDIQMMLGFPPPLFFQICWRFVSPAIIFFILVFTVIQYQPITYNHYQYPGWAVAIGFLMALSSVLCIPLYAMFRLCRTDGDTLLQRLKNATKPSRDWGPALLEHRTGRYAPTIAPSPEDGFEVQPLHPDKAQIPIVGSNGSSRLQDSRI
pKi: −log10 of the molar value.
quantityKind: pKi

Exercise: Name the recorded pKi for CCCS(=O)(=O)NCc1ccc2c(c1)C(Cc1ccccc1)NC2 (centres unmarked) .
Solution: > 5.00

Exercise: Then this compound: O=S(=O)(CC1CC1)NCc1ccc2c(c1)C(Cc1ccccc1)NC2 (centres unmarked)
Solution: > 5.00

Exercise: Then this compound: CC1(Cc2ccccc2)NCc2ccc(OCCNS(=O)(=O)CC3CC3)cc21 (centres unmarked)
Solution: > 6.00

Exercise: Then this compound: Cn1cc(S(=O)(=O)NCCOc2ccc3c(c2)C(Cc2ccccc2)N(C2COC2)C3)cn1 (centres unmarked)
Solution: > 7.00

Exercise: Then this compound: CCCS(=O)(=O)NCc1ccc2c(c1)C(Cc1ccccc1)NC2=O (centres unmarked)
Solution: > 5.00

Exercise: Then this compound: Cn1cnc(S(=O)(=O)NCCOc2ccc3c(c2)C(Cc2ccccc2)NC3=O)c1 (centres unmarked)
Solution: > 6.00

Exercise: Then this compound: CCS(=O)(=O)NCc1ccc2c(c1)C(Cc1ccccc1)NC2 (centres unmarked)
Solution: > 4.00

Exercise: Then this compound: CCS(=O)(=O)NCCOc1cc2c(cc1F)C(=O)NC2Cc1ccccc1 (centres unmarked)
Solution: > 5.00
